From: ChEMBL document CHEMBL1131170

target: Protein farnesyltransferase (Homo sapiens, UniProt P49354+P49356); assay: Inhibition of human Farnesyltransferase at 100 uM; assay type: protein-complex assay
Measured inhibition of individual entries
metric: inhibition (%)

INSERT INTO assay_data (molecule, experimental_result) VALUES
  ('C[C@]12CCC(=O)C=C1CC[C@@H]1[C@@H]2[C@@H](O)C[C@@]2(C)[C@H]1CC[C@]2(O)C(=O)COC(=O)CCC(=O)O', 46),
  ('CC(=O)OCC(=O)[C@@]1(O)CCC2C3CCC4=CC(=O)CC[C@]4(C)C3CC[C@@]21C (stereo partly specified)', 6),
  ('CC(=O)OCC(=O)[C@@]1(O)CCC2C3CCC4=CC(=O)CC[C@]4(C)C3[C@@H](O)C[C@@]21C (stereo partly specified)', 6),
  ('CC(C)(CC(=O)O)CC(=O)OCC(=O)[C@@]1(O)CCC2C3CCC4=CC(=O)C=C[C@]4(C)[C@@]3(F)[C@@H](O)C[C@@]21C (stereo partly specified)', 63),
  ('C[C@]12C=CC(=O)C=C1CC[C@@H]1[C@@H]2[C@@H](O)C[C@@]2(C)[C@H]1CC[C@]2(O)C(=O)COC(=O)CCC(=O)O', 36),
  ('CC(CCC(=O)O)C1CC[C@H]2[C@@H]3CCC4CC(=O)CC[C@]4(C)[C@H]3CC(=O)[C@]12C (stereo partly specified)', 33);

----------
Catalogue of log10 IC50 values
biological target: Protein farnesyltransferase (Homo sapiens, UniProt P49354+P49356); test: Inhibitory activity against human Farnesyltransferase; type: protein-complex assay
metric: log10 IC50 (log10 of the value in µM)

INSERT INTO measurements (compound, experimental_result) VALUES
  ('CC(C)CCCC(C)C1CCC2C3CCC(=O)[C@](C)(CCC(=O)O)C3CC[C@]12C (stereo not given in full)', 1.60),
  ('CC(C)CCCC(C)C1CCC2C3CCC(=O)C(CCC(=O)O)C3CC[C@]12C (stereo not given in full)', 0.08),
  ('CC(C)CCCC(C)C1CCC2C3C(CC[C@]12C)[C@@](C)(C[C@@H](CC(=O)O)C(=O)O)C(=O)C[C@@H]3C (stereo not given in full)', -1.40),
  ('CC(C)CCCC(C)C1CCC2C3C(CC[C@]12C)[C@@](C)(CCC(=O)O)C(=O)C[C@@H]3C (stereo not given in full)', -0.05),
  ('CC(C)CCCC(C)C1CCC2C3CC[C@@H](C(=O)O)[C@](C)(CCC(=O)O)C3CC[C@]12C (stereo not given in full)', 1.32),
  ('CCOC(=O)C[C@H](C[C@@]1(C)C(=O)C[C@H](CC)C2C3CCC(C(C)CCCC(C)C)[C@@]3(C)CCC21)C(=O)O (stereo not given in full)', 1.60),
  ('CC(CCC(=O)O)C1CCC2C3C(CC[C@]12C)[C@@](C)(CCC(=O)O)C(=O)C[C@@H]3C (stereo not given in full)', 1.49),
  ('CC[C@H]1CC(=O)[C@](C)(CCC(=O)O)C2CC[C@]3(C)C(C(C)CCCC(C)C)CCC3C21 (stereo not given in full)', 1.78),
  ('C[C@]1(CCC(=O)O)C(=O)CCC2C1C(=O)C[C@@]1(C)C2CC[C@@]12OCOC21COCO1 (stereo not given in full)', 1.46),
  ('CC[C@H]1CC(=O)[C@](C)(C[C@@H](CC(=O)O)C(=O)O)C2CC[C@]3(C)C(C(C)CCCC(C)C)CCC3C21 (stereo not given in full)', 0.48),
  ('COC(=O)CC[C@@]1(C)C(=O)CCC2C1C(=O)C[C@@]1(C)C2CC[C@@]12OCOC21COCO1 (stereo not given in full)', 1.41),
  ('CC(C)C(=O)OCC(=O)C1CCC2C3CCC(=O)[C@](C)(CCC(=O)O)C3C(=O)C[C@]12C (stereo not given in full)', 1.60);

----------
target: Protein farnesyltransferase (Homo sapiens, UniProt P49354+P49356); assay: inhibitory activity against human Farnesyltransferase; format: protein-complex assay
Catalogue of molecules with associated IC50
metric: IC50 (µM)

INSERT INTO assay_data (molecule, metric, result_modifier, experimental_result) VALUES
  ('C[C@]12CC(=O)C3C(CCC4=CC(=O)CC[C@@]43C)C1CCC2C(=O)CO (stereo partly drawn)', 'IC50', '>', 100),
  ('C[C@]12CCC(=O)C=C1CCC1C2C(=O)C[C@@]2(C)C1CCC2(O)C(=O)COC(=O)CCC(=O)O (stereo partly drawn)', 'IC50', '=', 24),
  ('CC(C)(CC(=O)O)CC(=O)OCC(=O)[C@@]1(O)CCC2C3CCC4=CC(=O)CC[C@]4(C)[C@@]3(F)[C@@H](O)C[C@@]21C (stereo partly drawn)', 'IC50', '=', 48);

----------
biological target: Protein farnesyltransferase (Homo sapiens, UniProt P49354+P49356); assay: Inhibition of human Farnesyltransferase using Ras-CVLS; type: protein-complex assay
Recorded IC50 for the following molecules
metric: IC50 (µM)

INSERT INTO assay_data (molecule, tgt, metric, experimental_result) VALUES
  ('C[C@H](CCC(O)C(C)(C)O)[C@H]1CC[C@@]2(C)C3=C(CC[C@]12C)[C@@]1(C)C[C@@H](OC(=O)CC(C)(O)CC(=O)O)C(=O)C(C)(C)[C@@H]1CC3 (some centres not stated)', 'Protein farnesyltransferase (Homo sapiens, UniProt P49354+P49356)', 'IC50', 0.35),
  ('C[C@H](CCC(O)C(C)(C)O)[C@H]1CC[C@@]2(C)C3=C(CC[C@]12C)[C@@]1(C)C[C@@H](O)C(=O)C(C)(C)[C@@H]1CC3 (some centres not stated)', 'Protein farnesyltransferase (Homo sapiens, UniProt P49354+P49356)', 'IC50', 8);

----------
target: Protein farnesyltransferase (Homo sapiens, UniProt P49354+P49356); assay: Inhibition of human Farnesyltransferase; format: protein-complex assay
pIC50: −log10 of the molar value.
metric: pIC50

INSERT INTO measurements (compound, tgt, experimental_result) VALUES
  ('CC(C)CCCC(C)C1CCC2C3CCC(=O)[C@](C)(C[C@@H](CC(=O)O)C(=O)O)C3CC[C@]12C (stereo partly specified)', 'Protein farnesyltransferase (Homo sapiens, UniProt P49354+P49356)', 6.72);

----------
target: Protein farnesyltransferase (Homo sapiens, UniProt P49354+P49356); assay: inhibitory activity against human Farnesyltransferase; type: protein-complex assay
pIC50: −log10 of the molar value.
metric: pIC50

INSERT INTO measurements (compound, result_modifier, experimental_result) VALUES
  ('C[C@]12C=C(C=O)C(=O)C=C1CCC1C2C(=O)C[C@@]2(C)C1CC[C@@]21OCOC12COCO2 (stereo partly specified)', '=', 5.92),
  ('CC(C)C(=O)OCC(=O)[C@@]1(O)CCC2C3CCC4=CC(=O)CC[C@]4(C)C3C(=O)C[C@@]21C (stereo partly specified)', '=', 4.82),
  ('C[C@H](CCC(O)C(C)(C)O)[C@H]1CC[C@@]2(C)C3=C(CC[C@]12C)[C@@]1(C)C[C@@H](O)C(=O)C(C)(C)[C@@H]1CC3 (stereo partly specified) [CLAVARINONE]', '=', 4.82),
  ('CC(=O)OCC(=O)[C@@]1(O)C(C)CC2C3CCC4=CC(=O)C=C[C@]4(C)C3=CC[C@@]21C (stereo partly specified)', '=', 4.40),
  ('CCOC(=O)C[C@@H]1C[C@@]2(C)C(=CC1=O)CCC1C3CCC(C(C)CCCC(C)C)[C@@]3(C)CCC12 (stereo partly specified)', '<', 4.00),
  ('CC(C)=CCCC(C)C1CC[C@@]2(C)C3=C(CC[C@]12C)[C@@]1(C)CCC(=O)C(C)(C)C1CC3 (stereo partly specified)', '=', 4.92),
  ('C[C@]12C=C(C3OCCO3)C(=O)C=C1CCC1C2C(=O)C[C@@]2(C)C1CC[C@@]21OCOC12COCO2 (stereo partly specified)', '=', 4.42),
  ('CCC(CC)C(=O)OCC(=O)[C@@]1(O)CCC2C3CCC4=CC(=O)CC[C@]4(C)C3C(=O)C[C@@]21C (stereo partly specified)', '=', 4.25),
  ('C[C@]12CCC(=O)C=C1CCC1C2C(=O)C[C@@]2(C)C1CC[C@]2(O)C(=O)COC(=O)CC(CC(=O)O)C(=O)O (stereo partly specified)', '=', 4.30),
  ('C[C@H]1CC2C3CCC4=CC(=O)C=C[C@]4(C)C3C(=O)C[C@]2(C)[C@]12OCOC21COCO1 (stereo partly specified)', '=', 4.02),
  ('CCC(CC)C(=O)OCC(=O)[C@@]1(O)CCC2C3CCC4=CC(=O)CC[C@]4(C)C3[C@@H](O)C[C@@]21C (stereo partly specified)', '<', 4.00),
  ('C[C@@H]1CC2C3CCC4=CC(=O)C=C[C@]4(C)C3C(=O)C[C@]2(C)[C@]12OCOC21COCO1 (stereo partly specified)', '<', 4.00),
  ('COC(=O)CC[C@@]1(C)C(=O)C[C@H](C)C2C3CCC(C(C)CCCC(C)C)[C@@]3(C)CCC21 (stereo partly specified)', '<', 4.00),
  ('CC(=O)OCC(=O)[C@@]1(O)CC[C@H]2[C@@H]3CCC4=CC(=O)CC[C@]4(C)[C@H]3C(=O)C[C@@]21C [CORTISONE ACETATE]', '=', 4.92),
  ('CC[C@H]1CC2=CC(=O)CC[C@]2(C)C2CC[C@]3(C)C(C(C)CCCC(C)C)CCC3C21 (stereo partly specified)', '<', 4.00),
  ('CC(C)CCCC(C)C1CCC2C3CCC4=CC(=O)[C@H](CC(=O)O)C[C@]4(C)C3CC[C@]12C (stereo partly specified)', '<', 4.00);
